Just for reference, ChEMBL document CHEMBL1156003 is where these values come from.

# assay_remarks: Half life at steady state in rat at 1 mg/kg, iv and 2 mg/kg, po
# Type: ADME, organism-based
# conditions: in vivo
value_kind: half-life (h)
// units = h; emit number, no label

Reported half-life of `FC(F)(F)c1ccc(Nc2noc3c(C(F)(F)F)cccc23)cc1` : 5.9

###

# tested_on: Bifunctional epoxide hydrolase 2 (Homo sapiens)
# Sequence (P34913 whole entry): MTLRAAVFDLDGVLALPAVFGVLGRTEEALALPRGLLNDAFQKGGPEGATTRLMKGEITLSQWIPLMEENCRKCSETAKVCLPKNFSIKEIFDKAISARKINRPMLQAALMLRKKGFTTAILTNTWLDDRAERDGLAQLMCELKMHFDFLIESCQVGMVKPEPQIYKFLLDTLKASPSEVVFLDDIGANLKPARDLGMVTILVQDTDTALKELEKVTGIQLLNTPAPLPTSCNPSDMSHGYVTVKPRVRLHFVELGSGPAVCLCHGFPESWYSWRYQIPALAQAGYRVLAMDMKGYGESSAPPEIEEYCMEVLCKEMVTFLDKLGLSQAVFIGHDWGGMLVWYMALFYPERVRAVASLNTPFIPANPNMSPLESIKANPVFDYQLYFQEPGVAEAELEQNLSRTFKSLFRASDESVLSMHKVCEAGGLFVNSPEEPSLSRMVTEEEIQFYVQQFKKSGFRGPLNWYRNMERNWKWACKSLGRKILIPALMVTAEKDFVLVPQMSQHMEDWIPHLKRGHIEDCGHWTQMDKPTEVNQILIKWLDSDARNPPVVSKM
# assay_remarks: Inhibition of human sEH
Label key: y means IC50 under 200 nM; n means IC50 of 200 nM or more.

QUERY: Problem: For the compound `FC(F)(F)c1ccc(Nc2nsc3ccccc23)cc1` , is IC50 under 200 nM?
RESULT: n

QUERY: Say whether its IC50 is strictly beneath 200 nM. Entry: `c1ccc(Cc2nnc(Nc3ccccc3)o2)cc1`
RESULT: n

QUERY: Does this compound meet the criterion IC50 < 200 nM? `FC(F)(F)c1ccc(Nc2noc3ncccc23)cc1`
RESULT: y

QUERY: I wonder whether `FC(F)(F)c1ccc(Nc2noc3c(C(F)(F)F)nccc23)cc1` has IC50 below 200 nM. Can you tell?
RESULT: y

QUERY: Bench note: check whether `FC(F)(F)c1ccc(Nc2noc3cc(-c4ccncc4)ccc23)cc1` shows IC50 below 200 nM
RESULT: y

QUERY: Consider the compound `c1ccc(CNc2ccc(-c3ccccc3)cn2)cc1` . Is its IC50 strictly less than 200 nM?
RESULT: n

QUERY: Lab log: compare recorded IC50 with 200 nM; is it strictly lower for `FC(F)(F)c1ccc(Nc2noc3c(C(F)(F)F)cccc23)cn1` ?
RESULT: y

QUERY: Does the reported IC50 of `c1ccc(CNc2cnc(-c3ccccc3)cn2)cc1` stay below 200 nM?
RESULT: n

QUERY: Dear colleague, could you confirm whether IC50 of `FC(F)(F)c1ccccc1Nc1noc2ccccc12` falls below 200 nM? Thanks.
RESULT: n

QUERY: IC50 under 200 nM? Item: `c1ccc(-c2cccc(Nc3noc4ccccc34)c2)cc1`
RESULT: n

QUERY: Given `FC(F)(F)Oc1ccc(Nc2noc3ccccc23)cc1` , is recorded IC50 strictly lower than 200 nM?
RESULT: y

QUERY: Please let me know if `FC(F)(F)c1nnc(Nc2ccccc2)o1` shows IC50 below 200 nM.
RESULT: n

QUERY: In plain terms, does `FC(F)(F)Oc1cccc(Nc2noc3ccccc23)c1` come in under 200 nM for IC50?
RESULT: y

QUERY: A record lists `FC(F)(F)c1ccc(Nc2noc3cccnc23)cc1` . Is its IC50 below 200 nM?
RESULT: n

QUERY: Here's an entry: `FC(F)(F)c1ccc(CNc2noc3ccccc23)cc1` . Is its IC50 below 200 nM?
RESULT: n

QUERY: Is 200 nM strictly greater than the compound's reported IC50? compound: `FC(F)(F)c1ccc(Nc2noc3ccc(C(F)(F)F)cc23)cc1`
RESULT: y

QUERY: Below 200 nM on IC50? Entry `c1ccc(CNc2nnc(-c3ccccc3)o2)cc1`
RESULT: n

QUERY: Is it true that IC50 reported for `FC(F)(F)c1ccc(CNc2cc(-c3ccccc3)on2)cc1` is less than 200 nM?
RESULT: n

QUERY: Does the reported IC50 of `FC(F)(F)c1ccc(Nc2n[nH]c3ccccc23)cc1` stay below 200 nM?
RESULT: n

QUERY: Identify whether the compound `c1ccc(CNc2cnc3ccccc3n2)cc1` records IC50 below 200 nM.
RESULT: n

QUERY: Lab note: IC50 threshold 200 nM. Does this compound come in strictly under it? `FC(F)(F)c1ccc(Nc2noc3cc(-c4ccc5[nH]ccc5c4)ccc23)cc1`
RESULT: y

QUERY: Would you kindly verify if IC50 of `c1ccc(CNc2nc3ccccc3o2)cc1` is strictly less than 200 nM?
RESULT: n

QUERY: I wonder whether `c1ccc(CNc2nnc(Cc3ccccc3)o2)cc1` has IC50 below 200 nM. Can you tell?
RESULT: n

QUERY: Record `FC(F)(F)c1ccc(Nc2noc3c(-c4ccccc4C(F)(F)F)cccc23)cc1` : is its IC50 strictly below 200 nM?
RESULT: y

QUERY: Does the reported IC50 of the following compound sit strictly below 200 nM? `c1ccc2c(Nc3noc4ccccc34)cccc2c1`
RESULT: n

QUERY: Input `FC(F)(F)c1ccc(Nc2noc3ccccc23)cc1` ; condition: IC50 strictly below 200 nM. Does it hold?
RESULT: y

QUERY: State whether 200 nM exceeds IC50 recorded for `FC(F)(F)Oc1ccccc1Nc1noc2ccccc12` .
RESULT: n

QUERY: Regarding `FC(F)(F)c1ccc(Nc2noc3cc(C(F)(F)F)ccc23)cc1` , kindly confirm whether its IC50 is beneath 200 nM.
RESULT: y

QUERY: Does `FC(F)(F)c1ccc(Nc2noc3cc(-c4cccc5cnccc45)ccc23)cc1` have IC50 strictly under 200 nM?
RESULT: y

QUERY: Find out if reported IC50 for `Fc1ccccc1-c1ccc2c(Nc3ccc(C(F)(F)F)cc3)noc2c1` is less than 200 nM
RESULT: y

QUERY: is_below(IC50, 200 nM) for `FC(F)(F)c1ccc(Nc2noc3c(C(F)(F)F)cccc23)nc1` ?
RESULT: n

QUERY: Input `c1ccc(CNc2cc(-c3ccccc3)ccn2)cc1` ; condition: IC50 strictly below 200 nM. Does it hold?
RESULT: n

QUERY: Hello, I'm reviewing records and need to know if IC50 of `FC(F)(F)c1ccc(Nc2noc3c(C(F)(F)F)cccc23)cc1` is below 200 nM. Could you check?
RESULT: y

QUERY: I wonder whether `FC(F)(F)c1cccc(CNc2cc(-c3ccccc3)ncn2)c1` has IC50 below 200 nM. Can you tell?
RESULT: n

QUERY: Dear colleague, could you confirm whether IC50 of `c1ccc(CNc2nc3ccccc3s2)cc1` falls below 200 nM? Thanks.
RESULT: n
